Field: inhibition of aggregation. Provide a value for each of the compounds that follow.
Assay: reduction of polyQ htt aggregates in cells – imaging, exon1htt(103Q)mCFP cells, high-content imaging, primary screen (AID 483);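 further: compound exposure lasted 3 days before fixation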
Details: exon1htt(103Q)mCFP cell line, aggregate imaging, at 2 µM; stronger effect = higher value
Report the figure in % without appending any unit label.

Prompt: For the compound "Nc1nc(CSCc2ccccc2)nc(N2CCOCC2)n1" , give its reported inhibition of aggregation.
Completion: -6.3

Prompt: For the compound "c1ccc2c(-c3nc(-c4ccncc4)no3)cccc2c1" , give its reported inhibition of aggregation.
Completion: -4.5

Prompt: For the compound "NC(=O)CSCc1ccc(Br)cc1" , give its reported inhibition of aggregation.
Completion: 12.7

Prompt: For the compound "Cc1nc(C)c(C(=O)OCC(=O)N2CCN(c3ccccc3)CC2)s1" , give its reported inhibition of aggregation.
Completion: -3.6

Prompt: For the compound CC(NO)C(C)(C)NO (configuration not stated) , give its reported inhibition of aggregation.
Completion: -7.5

Prompt: For the compound "CCn1c(SCC(=O)N2c3ccccc3CCc3ccccc32)nc2c1c(=O)n(C)c(=O)n2C" , give its reported inhibition of aggregation.
Completion: 25.6

Prompt: For the compound "CCCn1c(SCC(=O)NCc2ccco2)nc2c1c(=O)n(C)c(=O)n2C" , give its reported inhibition of aggregation.
Completion: 16.5

Prompt: For the compound "Cc1sc2nc(SCC(=O)N3CCN(CCO)CC3)n(-c3ccccc3)c(=O)c2c1C" , give its reported inhibition of aggregation.
Completion: -7.3

Prompt: For the compound "Cc1cc(C)nc(N2CCC(C(=O)Nc3ccc4c(c3)CCC4)CC2)n1" , give its reported inhibition of aggregation.
Completion: 17.6

Prompt: For the compound "COc1cccc(NC(=O)c2ccccc2NS(C)(=O)=O)c1" , give its reported inhibition of aggregation.
Completion: -12.9

Prompt: For the compound C#CC(CO)N(CCN(Cc1ccccc1)C(C#C)CO)Cc1ccccc1 (configuration not stated) , give its reported inhibition of aggregation.
Completion: -12.5

Prompt: For the compound O=C(O)C1CCCN1c1ncnc2c1oc1ccccc12 (configuration not stated) , give its reported inhibition of aggregation.
Completion: 11.5
